Entry source: patent EP0517225A1

Tested on: E.coli bacterial strain, AB2463 mutant strain (RecA)
Assay: Mutagenicity test: mortality of RecA-deficient E. coli strain
Type: cell-based
Conditions: RecA strain AB2463, treated for 2 hours at 37 °C
List of LD₉₀ values.
ASSAY READOUT: LD₉₀ (µM)

COMPOUND: N.N.[Cl][Pt][Cl] [Cisplatin, reference compound]
NUMERIC READOUT: 56.0
--
COMPOUND: CCC1C(N)CCN1CC.[Cl][Pt][Cl] (stereo not drawn)
NUMERIC READOUT: 72.33
--
COMPOUND: N.N.O=C([O-])C1(C(=O)[O-])CCC1.[Pt+2] [Carboplatin, reference compound]
NUMERIC READOUT: 1599
--
COMPOUND: CCN1CCC(N)C1C.[Cl][Pt][Cl] (stereo not drawn)
NUMERIC READOUT: 301.27
--
COMPOUND: CCC1C(N)CCN1C.[Cl][Pt][Cl] (stereo not drawn)
NUMERIC READOUT: 35.78
--
COMPOUND: CC1C(N)CCN1C.[Cl][Pt][Cl] (stereo not drawn)
NUMERIC READOUT: 13.15
